Target: chimeric M4R (RGLG-2) (Homo sapiens, UniProt P08173)
Construct: ID; NOs; expressed in transfected cells
Test: BRET assay of the invention, cells co-expressing chimeric M4R (RGLG-2) and FP-Gγ9
Assay type: cell-based
Details: activity @ 30uM or 30 ug/ml; in presence of EC20 value of Ach; normalized to maximal effect of the orthosteric agonist
Protocol: The same cells as described for FIG. 10 A were used. […] The decrease of the signal below baseline in the PTX-treated condition confirms a constitutive activity that has been described for the M4R. […] A typical experiment has the following sequence. The assay of the present invention was compared with a state of the art calcium based assay. […] In calcium-based assay, a calcium flux is measured in cells co-expressing recombinant M4R and modified Gαq. […]
Structures can show the parent of a compound that is named as a salt.
Parameter measured: Invention assay % enh (%)
Record the value in %, omitting the unit from your answer.

stdin: Respond only with Invention assay % enh recorded for Cn1c2c(c(=O)n(C)c1=O)C(c1cccc(Br)c1)C1=C(N2)c2ccccc2C1=O (stereo not drawn) [BPIPP]
stdout: 8.3

stdin: Respond only with Invention assay % enh recorded for C[C@H](CCC(=O)O)C[C@H](C)C[C@H](C)C(=O)/C=C(\O)[C@H](C)C[C@H](C)C/C=C/[C@@H](C)[C@@H](O)[C@@H](C)[C@@H](O)C[C@@H]1CC[C@@](C)([C@H]2CC[C@@](C)([C@@H](C)O)O2)O1 [Ionomycin calcium salt]
stdout: −2.5

stdin: Respond only with Invention assay % enh recorded for O=C1Nc2ccc(I)cc2/C1=C/c1cc(Br)c(O)c(Br)c1 [GW 5074]
stdout: 2.8

stdin: Respond only with Invention assay % enh recorded for COC(=O)C1=C(C)NC(C)=C([N+](=O)[O-])[C@@H]1c1ccccc1C(F)(F)F [(R)-(+)-Bay K 8644]
stdout: 4.7

stdin: Respond only with Invention assay % enh recorded for O=C(N/N=C/c1ccc(O)c(O)c1)c1cc2ccccc2cc1O [Dynamin Inhibitor I]
stdout: 23.9

stdin: Respond only with Invention assay % enh recorded for C=C[C@@]1(C)CC(=O)[C@]2(O)[C@@]3(C)[C@@H](O)CCC(C)(C)[C@@H]3[C@H](O)[C@H](OC(C)=O)[C@@]2(C)O1 [FSK]
stdout: −3.6

stdin: Respond only with Invention assay % enh recorded for CC[C@H]1/C=C/C=C/C[C@@H](C)[C@H](O)[C@@](C)(O)C(=O)[C@@H](C)[C@H](O)[C@@H](C)C(=O)[C@@H](C)[C@H](O)[C@@H](C)/C=C/C(=O)O[C@@H]2[C@H](C)[C@H](CC1)O[C@]1(CC[C@H](C)[C@H](C[C@@H](C)O)O1)[C@H]2C [Oligomycin]
stdout: 3.3

stdin: Respond only with Invention assay % enh recorded for Cc1ccc2c(c1)C(=O)C1(O)CCN(c3ccccc3)C1=N2 (racemic) [(±)-Blebbistatin]
stdout: −2.4

stdin: Respond only with Invention assay % enh recorded for CN(C)CCCn1cc(C2=C(c3c[nH]c4ccccc34)C(=O)NC2=O)c2ccccc21 [GF 109203X]
stdout: 7.4

---

Kindly state Calcium-based assay % enh for each of the entries shown.
Biological target: M4R (Homo sapiens, UniProt P08173)
Construct: expressed in transfected cells
Assay: Calcium-based assay, calcium flux in cells co-expressing recombinant M4R and modified Gαq
Format: cell-based
Details: activity @ 30uM or 30 ug/ml; in presence of EC20 value of Ach; normalized to maximal effect of the orthosteric agonist
Record the value in %, omitting the unit from your answer.

stdin: State Calcium-based assay % enh on M4R (Homo sapiens, UniProt P08173). Entry: CCOC(=O)C1=C(C)NC(=S)NC1c1cccc(O)c1 (stereo not drawn)
stdout: 44.7

stdin: State Calcium-based assay % enh on M4R (Homo sapiens, UniProt P08173). Entry: CN(C)CCCn1cc(C2=C(c3c[nH]c4ccccc34)C(=O)NC2=O)c2ccccc21 [GF 109203X]
stdout: 84.3

stdin: State Calcium-based assay % enh on M4R (Homo sapiens, UniProt P08173). Entry: CCN1C(=O)C=CC1=O [N-Ethylmaleimide]
stdout: 0.2

stdin: State Calcium-based assay % enh on M4R (Homo sapiens, UniProt P08173). Entry: Cn1c2c(c(=O)n(C)c1=O)C(c1cccc(Br)c1)C1=C(N2)c2ccccc2C1=O (stereo not drawn)
stdout: 62.6

stdin: State Calcium-based assay % enh on M4R (Homo sapiens, UniProt P08173). Entry: NCCOB(c1ccccc1)c1ccccc1
stdout: 4.8

stdin: State Calcium-based assay % enh on M4R (Homo sapiens, UniProt P08173). Entry: CCCCCC(O)/C=C/C=O (stereo not drawn) [4-Hydroxynonenal]
stdout: −7.3

stdin: State Calcium-based assay % enh on M4R (Homo sapiens, UniProt P08173). Entry: O=C1OC2(c3ccccc31)c1ccc(O)c(O)c1Oc1c2ccc(O)c1O
stdout: 42.9

stdin: State Calcium-based assay % enh on M4R (Homo sapiens, UniProt P08173). Entry: COC(=O)C1=C(C)NC(C)=C(C(=O)OC)C1c1ccccc1[N+](=O)[O-]
stdout: 8.7

stdin: State Calcium-based assay % enh on M4R (Homo sapiens, UniProt P08173). Entry: COC(=O)C1=C(C)NC(C)=C([N+](=O)[O-])[C@H]1c1ccccc1C(F)(F)F [(S)-(−)-Bay K 8644]
stdout: 59.8

---

Molecular target: chimeric M4R (RGLG-2) (Homo sapiens)
Construct: ID; NOs; expressed in transfected cells
Test: BRET assay of the invention, cells co-expressing chimeric M4R (RGLG-2) and FP-Gγ9
Assay type: cell-based
Conditions: activity @ 30uM or 30 ug/ml; in presence of EC80 of Ach; normalized to maximal effect of the orthosteric agonist
Parameter measured: Invention assay % inh (%)
Record the value in %, omitting the unit from your answer.

stdin: State Invention assay % inh on chimeric M4R (RGLG-2) (Homo sapiens). Entry: Cn1c2c(c(=O)n(C)c1=O)C(c1cccc(Br)c1)C1=C(N2)c2ccccc2C1=O (stereo not shown) [BPIPP]
stdout: 1.5

stdin: State Invention assay % inh on chimeric M4R (RGLG-2) (Homo sapiens). Entry: CCOC(=O)C1=C(C)NC(=S)NC1c1cccc(O)c1 (stereo not shown) [Monastrol]
stdout: 7.0

stdin: State Invention assay % inh on chimeric M4R (RGLG-2) (Homo sapiens). Entry: COC(=O)C1=C(C)NC(C)=C(C(=O)OC)C1c1ccccc1[N+](=O)[O-] [Nifedipine]
stdout: 23.2

stdin: State Invention assay % inh on chimeric M4R (RGLG-2) (Homo sapiens). Entry: CN(C)CCCn1cc(C2=C(c3c[nH]c4ccccc34)C(=O)NC2=O)c2ccccc21 [GF 109203X]
stdout: 29.5

---

Target: M4R (Homo sapiens)
Construct: expressed in transfected cells
Sequence (P08173 1-479): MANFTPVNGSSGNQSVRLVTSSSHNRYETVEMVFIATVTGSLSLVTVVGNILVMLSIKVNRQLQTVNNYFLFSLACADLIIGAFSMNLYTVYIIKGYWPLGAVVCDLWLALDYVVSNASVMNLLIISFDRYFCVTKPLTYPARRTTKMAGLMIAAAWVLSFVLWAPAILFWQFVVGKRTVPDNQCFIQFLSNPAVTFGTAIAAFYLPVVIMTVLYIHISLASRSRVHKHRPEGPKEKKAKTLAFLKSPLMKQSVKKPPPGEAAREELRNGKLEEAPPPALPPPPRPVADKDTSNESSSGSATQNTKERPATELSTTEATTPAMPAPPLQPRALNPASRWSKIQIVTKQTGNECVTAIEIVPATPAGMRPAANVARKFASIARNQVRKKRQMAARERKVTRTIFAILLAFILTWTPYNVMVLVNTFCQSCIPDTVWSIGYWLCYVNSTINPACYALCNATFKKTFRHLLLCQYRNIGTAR
Assay: Calcium-based assay, calcium flux in cells co-expressing recombinant M4R and modified Gαq
Format: cell-based
Details: activity @ 30uM or 30 ug/ml; in presence of EC80 of Ach; normalized to maximal effect of the orthosteric agonist
Structures can show the parent of a compound that is named as a salt.
Parameter measured: Calcium-based assay % inh (%)
Record the value in %, omitting the unit from your answer.

stdin: State Calcium-based assay % inh on M4R (Homo sapiens). Entry: NCCOB(c1ccccc1)c1ccccc1 [2-APB]
stdout: 30.3

stdin: State Calcium-based assay % inh on M4R (Homo sapiens). Entry: Cc1ccc2c(c1)C(=O)C1(O)CCN(c3ccccc3)C1=N2 (racemic) [(±)-Blebbistatin]
stdout: −46.9

stdin: State Calcium-based assay % inh on M4R (Homo sapiens). Entry: O=C1OC2(c3ccccc31)c1ccc(O)c(O)c1Oc1c2ccc(O)c1O [Gallein]
stdout: −22.2

stdin: State Calcium-based assay % inh on M4R (Homo sapiens). Entry: CCN1C(=O)C=CC1=O [N-Ethylmaleimide]
stdout: 96.9

stdin: State Calcium-based assay % inh on M4R (Homo sapiens). Entry: Nc1c[n+](N2CCOCC2)no1.[Cl-] [SIN-1 chloride]
stdout: 17.1

stdin: State Calcium-based assay % inh on M4R (Homo sapiens). Entry: COC(=O)c1c(C)[nH]c(C)c1C(=O)c1ccccc1Cc1ccccc1 [FPL 64176]
stdout: −66.6

stdin: State Calcium-based assay % inh on M4R (Homo sapiens). Entry: C[C@H](CCC(=O)O)C[C@H](C)C[C@H](C)C(=O)/C=C(\O)[C@H](C)C[C@H](C)C/C=C/[C@@H](C)[C@@H](O)[C@@H](C)[C@@H](O)C[C@@H]1CC[C@@](C)([C@H]2CC[C@@](C)([C@@H](C)O)O2)O1 [Ionomycin calcium salt]
stdout: 112.2

stdin: State Calcium-based assay % inh on M4R (Homo sapiens). Entry: COC(=O)C1=C(C)NC(C)=C(C(=O)OC)C1c1ccccc1[N+](=O)[O-] [Nifedipine]
stdout: 34.8

stdin: State Calcium-based assay % inh on M4R (Homo sapiens). Entry: COC(=O)C1=C(C)NC(C)=C([N+](=O)[O-])[C@H]1c1ccccc1C(F)(F)F [(S)-(−)-Bay K 8644]
stdout: −65.0

stdin: State Calcium-based assay % inh on M4R (Homo sapiens). Entry: CCCCCC(O)/C=C/C=O (stereo not shown) [4-Hydroxynonenal]
stdout: 118.9
